B1: bZIP63 (protoplast two-hybrid fusion) [Arabidopsis thaliana] / bZIP63 (protoplast two-hybrid fusion) [Arabidopsis thaliana] (parent)
chain 1: MEKVFSDEEISGNHHWSVNGMTSLNRSASEWAFNRFIQESSAAADDGESTTACGVSVSSPPNVPVDSEEYRAFLKSKLNLACAAVAMKRGTFIKPQDTSGRSDNGGANESEQASLASSKATPMMSSAITSGSELSGDEEEADGETNMNPTNVKRVKRMLSNRESARRSRRRKQAHLSELETQVSQLRVENSKLMKGLTDVTQTFNDASVENRVLKANIETLRAKVKMAEETVKRLTGFNPMFHNMPQIVSTVSLPSETSNSPDTTSSQVTTPEIISSGNKGKALIGCKMNRTASMRRVESLEHLQKRIRSVGDQ
chain 2: B1 chain 1

Variants of: B1
Test: protoplast two-hybrid (P2H) assay
Conditions: with bZIP63 (protoplast two-hybrid fusion) [Arabidopsis thaliana]; + AKIN10 co-transformation; parent: 100; read off a plot
recorded.metric: percent of parent (%)
Express it in %; write the number only.

stdin: Query (variant): chain 1 S300A ; field requested: percent of parent
stdout: 79

stdin: And then chain 1 S29A , what is it?
stdout: 44

stdin: Continue with chain 1 S294A
stdout: 75

stdin: For chain 1 S294A S300A then?
stdout: 67
